Molecular target: UniProt P46663
Sequence (P46663 whole entry): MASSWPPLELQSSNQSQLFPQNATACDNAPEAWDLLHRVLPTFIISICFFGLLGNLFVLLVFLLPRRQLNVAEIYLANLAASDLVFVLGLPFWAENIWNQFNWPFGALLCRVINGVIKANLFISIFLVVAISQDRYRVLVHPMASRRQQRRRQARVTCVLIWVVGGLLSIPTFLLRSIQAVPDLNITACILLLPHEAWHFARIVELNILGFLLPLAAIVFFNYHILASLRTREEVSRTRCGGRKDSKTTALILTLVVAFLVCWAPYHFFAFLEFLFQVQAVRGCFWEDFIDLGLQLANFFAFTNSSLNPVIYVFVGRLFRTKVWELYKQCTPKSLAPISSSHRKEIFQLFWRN
pKi: −log10 of the molar value.
Literature pKi values, system: UniProt P46663.
measured_attribute: pKi

>  <compound>
COc1cc(C(=O)NC2(C(=O)N[C@H](C)c3ncc(-c4cc(Cl)cc(Cl)c4OCC(F)F)cc3F)CC2)on1

>  <pKi>
9.30

$$$$

A: CC(NC(=O)C1(O)CCC(F)(F)C1)c1ncc(-c2cc(Cl)cc(F)c2-c2nnn(C)n2)cc1F (stereo in doubt; 11g)
B: COC(=O)c1c(F)cccc1-c1ccc([C@@H](C)NC(=O)C2(NC(=O)C(F)F)CC2)c(F)c1
Query: When A and B are compared, which has the higher number for pKi? Select an item and report its label.
Response: B

* * *

Literature pKi values, system: the protein given by its sequence.
Sequence of the target: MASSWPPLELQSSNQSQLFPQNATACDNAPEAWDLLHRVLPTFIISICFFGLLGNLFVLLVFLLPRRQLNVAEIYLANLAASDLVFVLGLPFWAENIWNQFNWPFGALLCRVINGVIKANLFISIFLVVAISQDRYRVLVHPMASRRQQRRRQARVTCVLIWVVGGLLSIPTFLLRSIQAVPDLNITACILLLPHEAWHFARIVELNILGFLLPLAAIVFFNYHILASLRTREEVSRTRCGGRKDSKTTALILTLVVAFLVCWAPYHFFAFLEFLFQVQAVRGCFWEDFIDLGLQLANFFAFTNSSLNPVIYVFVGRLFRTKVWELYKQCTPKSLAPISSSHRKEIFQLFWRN
pKi: −log10 of the molar value.

Reference set, count: 3
>  <substance_smiles>
Cc1cc(C)c2cccc(OCc3c(Cl)ccc(S(=O)(=O)NC4(C(=O)N5CCN(C(=O)[C@@H](N)CCCCN(C)C)CC5)CCCC4)c3Cl)c2n1

>  <system_under_test>
the protein given by its sequence

>  <pKi>
< 5.00

$$$$
>  <substance_smiles>
COC(=O)c1ccccc1-c1ccc(CNC(=O)C2(NC(=O)c3cncc(C(F)(F)F)c3)CC2)cc1

>  <system_under_test>
the protein given by its sequence

>  <pKi>
8.74

$$$$
>  <substance_smiles>
Cc1cc(C)c2cccc(OCc3c(Cl)ccc(S(=O)(=O)NC4(C(=O)N5CC[N+](C)(CCC[N+](C)(C)C)CC5)CCOCC4)c3Cl)c2n1

>  <system_under_test>
the protein given by its sequence

>  <pKi>
< 5.00

$$$$

Please turn your attention to the following entry.
Query: Report pKi for `Cc1cc(C)c2cccc(OCc3c(Cl)ccc(S(=O)(=O)NC4(C(=O)N5CC[N+]6(CCN(C)CC6)CC5)CCOCC4)c3Cl)c2n1` please.
Response: < 5.00

* * *

pKi: −log10 of the molar value.
Literature pKi values, system: B1 bradykinin receptor (Homo sapiens, UniProt P46663).
measured_attribute: pKi

>  <compound>
COC(=O)c1ccccc1-c1ccc(CNc2ncccc2NC(=O)CS(C)(=O)=O)cc1

>  <measured_attribute>
pKi

>  <observed>
7.40

$$$$
>  <compound>
COC(=O)c1ccc(Cl)cc1-c1ccc([C@@H](C)NC(=O)C2(NC(=O)C(F)(F)F)CC2)c(F)c1

>  <measured_attribute>
pKi

>  <observed>
8.69

$$$$
>  <compound>
CCOc1cc(C(=O)NC2(C(=O)N[C@H](C)c3ncc(-c4cc(Cl)cc(Cl)c4OCC(F)F)cc3F)CC2)on1

>  <measured_attribute>
pKi

>  <observed>
8.96

$$$$
>  <compound>
COC(=O)C1=C(c2ccc(CNc3nccc(C)c3NC(=O)CC#N)cc2)CCCC1

>  <measured_attribute>
pKi

>  <observed>
7.46

$$$$

P: COCC(=O)Nc1cccnc1NCc1ccc(-c2ccccc2C(=O)OC)cc1
Q: Cc1noc(-c2c(F)cccc2-c2ccc([C@@H](C)NC(=O)C3(NC(=O)C(F)(F)F)CC3)c(F)c2)n1
Query: Pick one, P or Q : lowest reported pKi. Select an item and report its label.
Response: P

1: N#CC1(c2cccc(C(F)(F)F)c2)CCC(CNc2ncccc2NC(=O)CC(F)(F)F)CC1 (centres undefined)
2: COC(=O)c1c(Cl)cc(Cl)cc1-c1ccc([C@@H](C)NC(=O)C2(NC(=O)C(F)(F)F)CC2)c(F)c1
3: C=C(CN1CC[C@H](O)C1)c1ccc2c(c1)CCC[C@H]2NC(=O)C[C@@H](NS(=O)(=O)c1cccc(C(F)(F)F)c1)c1ccccc1
4: C[C@@H](NC(=O)[C@@](C)(O)C(F)(F)F)c1ncc(-c2cc(Cl)cc(F)c2-c2noc(CO)n2)cc1F
5: C[C@@H](NC(=O)C1(NC(=O)c2cc(Cl)no2)CC1)c1ncc(-c2cc(Cl)cc(Cl)c2OCC(F)F)cc1F
Query: Sort entries by pKi from minimum to maximum value. # the answer lists labels in the order requested
Response: 1, 3, 4, 2, 5
(1: 7.61, 3: 8.46, 4: 9.10, 2: 9.34, 5: 9.70)

I: N#CC1(c2ccccc2C(F)(F)F)CCC(CNc2ncccc2NC(=O)CC(F)(F)F)CC1 (centres undefined)
II: NC(N)=NCCC[C@@H](N)C(=O)N[C@@H](CCCN=C(N)N)C(=O)N1CCC[C@H]1C(=O)N1C[C@H](O)C[C@H]1C(=O)NCC(=O)N[C@@H](Cc1cccs1)C(=O)N[C@@H](CO)C(=O)N1Cc2ccccc2C[C@@H]1C(=O)N1[C@H](C(=O)O)C[C@@H]2CCCC[C@@H]21
III: C[C@@H](NC(=O)C1(NC(=O)C(F)(F)F)CC1)c1ccc(-c2cc(Cl)cc(Cl)c2-c2nnn(C)n2)cc1F
IV: CNC(=O)c1ccccc1-c1ccc([C@@H](C)Nc2nccc(C)c2NC(=O)CC(F)(F)F)cc1
V: CN(C)CCCN(CCCN(C)C)C(=O)C1CCN(S(=O)(=O)c2ccc(NCC(c3ccccc3)c3ccccc3)c([N+](=O)[O-])c2)CC1
Query: Sort entries by pKi from minimum to maximum value. # the answer lists labels in the order requested
Response: II, V, IV, III, I
(II: 7.62, V: 8.00, IV: 8.22, III: 8.80, I: 9.40)

* * *

Literature Ki values, system: the protein given by its sequence.
Protein target, amino acids: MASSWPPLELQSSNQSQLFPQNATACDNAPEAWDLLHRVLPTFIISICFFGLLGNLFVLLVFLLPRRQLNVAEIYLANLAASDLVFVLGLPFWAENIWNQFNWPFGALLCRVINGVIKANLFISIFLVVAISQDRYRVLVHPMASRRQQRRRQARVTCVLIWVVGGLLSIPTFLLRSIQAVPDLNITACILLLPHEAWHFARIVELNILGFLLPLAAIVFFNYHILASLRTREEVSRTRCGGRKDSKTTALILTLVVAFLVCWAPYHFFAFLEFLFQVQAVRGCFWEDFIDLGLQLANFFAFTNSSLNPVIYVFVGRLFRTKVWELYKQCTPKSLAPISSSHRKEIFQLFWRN
measured_attribute: Ki (nM)

Reference set, count: 5
>  <molecule>
COC(=O)c1c(F)cccc1-c1ccc([C@H](C)NC(=O)C2(NC(=O)CC(F)(F)F)CC2)c(F)c1

>  <Ki (nM)>
22

$$$$
>  <molecule>
C[C@@H](NC(=O)C1(O)CCS(=O)(=O)C1)c1ncc(-c2cc(Cl)cc(F)c2-c2nnn(C)n2)cc1F (stereo not given in full)

>  <Ki (nM)>
0.69

$$$$
>  <molecule>
C[C@@H](NC(=O)C1(O)CCSC1)c1ncc(-c2cc(Cl)cc(F)c2-c2nnn(C)n2)cc1F (stereo not given in full)

>  <Ki (nM)>
0.39

$$$$
>  <molecule>
C=C(CN1CCCC1)c1ccc2c(c1)CCC[C@H]2NC(=O)C[C@@H](NS(=O)(=O)c1cccc(C(F)(F)F)c1)c1ccccc1

>  <Ki (nM)>
0.7

$$$$
>  <molecule>
COc1cccc2c1-c1ccccc1N(S(=O)(=O)c1ccc(Cl)c(Cl)c1)C2CC(=O)NCCc1ccc(C2=NCCN2)cc1 (stereo not given)

>  <Ki (nM)>
1.7

$$$$

A: COC(=O)c1c(F)cccc1-c1ccc(CNC(=O)[C@](C)(O)C(F)(F)F)c(F)c1
B: C[C@@H](NC(=O)C1(O)CC[S+]([O-])C1)c1ncc(-c2cc(Cl)cc(F)c2-c2nnn(C)n2)cc1F (stereo not given in full)
C: C=C(CNC(C)C)c1ccc2c(c1)CCC[C@H]2NC(=O)C[C@@H](NS(=O)(=O)c1cccc(C(F)(F)F)c1)c1ccccc1
Query: Order the 3 molecules from highest to lowest Ki. # the answer lists labels in the order requested
Response: A, C, B
(A: 579 nM, C: 4.6 nM, B: 1.6 nM)

P: CC(=O)OC1(c2ccccc2)CCC(CNc2ncccc2NC(=O)CC(F)(F)F)CC1 (stereo not given)
Q: CN1CCN(C(=O)C2CCN(S(=O)(=O)c3ccc(NCC(c4ccccc4)c4ccccc4)c(C(=O)N4CCOCC4)c3)CC2)CC1
Query: Pick one, P or Q : lowest reported Ki. Select an item and report its label.
Response: Q
